Reported Percent Effect values are given for each entry in this list.
# system.under.test: Aspartate--tRNA(Asp/Asn) ligase (Mycobacterium tuberculosis (strain ATCC 25618 / H37Rv)) (UniProt P9WFW3); note: in the data most compounds retested in dose-response had high values
# Sequence (P9WFW3 whole entry): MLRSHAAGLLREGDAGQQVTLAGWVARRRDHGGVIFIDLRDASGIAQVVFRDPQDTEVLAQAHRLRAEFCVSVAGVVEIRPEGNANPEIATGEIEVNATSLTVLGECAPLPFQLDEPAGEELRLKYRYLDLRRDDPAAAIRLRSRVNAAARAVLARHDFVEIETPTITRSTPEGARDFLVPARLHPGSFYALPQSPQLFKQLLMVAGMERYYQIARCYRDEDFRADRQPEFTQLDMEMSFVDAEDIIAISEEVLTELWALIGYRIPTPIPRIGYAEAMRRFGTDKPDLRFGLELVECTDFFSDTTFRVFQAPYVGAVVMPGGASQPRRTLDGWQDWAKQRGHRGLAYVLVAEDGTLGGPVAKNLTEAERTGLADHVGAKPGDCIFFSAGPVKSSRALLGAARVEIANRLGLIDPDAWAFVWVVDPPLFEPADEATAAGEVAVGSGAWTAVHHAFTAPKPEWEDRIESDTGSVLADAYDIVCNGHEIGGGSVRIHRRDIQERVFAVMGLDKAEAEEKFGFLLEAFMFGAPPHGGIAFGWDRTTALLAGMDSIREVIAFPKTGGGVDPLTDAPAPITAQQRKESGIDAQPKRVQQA
# test.method.notes: Assay for Asp RNA synthetase-1 from Mycobacterium tuberculosis
# Format: functional
# Set-up: scale not given: direction of the effect not stated beside the values
# test.parameters: 30 µM
measurement.name: Percent Effect (%)

> print(dat)
                                    compound  measured.number
 1  CC(=O)N(Cc1noc(C2CC2)n1)C1CCN(Cc2cccnc2)C1 (stereo not given)            -2.42
 2  Cc1ccc(N2CCCN(C(=O)c3c(C)oc(C)c3C)CC2)nn1             1.16
 3  Cn1cnc2c1C(COCC1CCOCC1)CN(C(=O)c1ccoc1)C2 (stereo not given)             2.22
 4    CCn1cc(NC(=O)NCc2ccc(CN3CCOCC3)cc2)cn1             3.24
 5       O=C(C1CCCCC1)N1CCC2(CCCN2CC2CC2)CC1             2.39
 6       Cc1ccc(CN(CCCn2ccnc2)Cc2c[nH]cn2)s1            -4.18
 7  O=C(C1CC1)N1CCN(Cc2coc(-c3ccc(Cl)cc3)n2)CC1            -1.18
 8  CC(C)N1CCOCC2(CN(Cc3ccco3)CCO2)C1 (stereo not given)             1.82
 9  Cc1c[nH]cc1C(=O)N1CCN(Cc2nc(C(C)C)no2)CC1            -3.47
10               CN(CCOc1cccc(CN)c1)C1CCOCC1           -0.881
11  CC(NC(=O)N(C)CCCOc1ccc(F)cc1)c1nncn1C (stereo not given)            -2.37
12        CSc1ccccc1CN1CCn2nc(CNC(C)=O)cc2C1             6.15
13  COc1c(C2CCCN2C(=O)c2c[nH]c3ncccc23)c(C)nn1C (stereo not given)            -1.25
14  CN(C)C(=O)c1nc2c(s1)CCN(C(=O)c1ccc(Cl)cc1)CC2             2.36
15  COc1ccccc1CC(=O)NCCCN1CCCC1C(=O)N(C)C (stereo not given)             5.61

---

Listed compounds paired with reported Percent Effect
# system.under.test: Shiga toxin 2 (Escherichia coli O157:H7) (UniProt P09385+P09386)
# test.method.notes: E. coli 0.157:H7 Shiga Toxin SOP - stx2 screening assay
# Format: functional
# Set-up: scale not given: direction of the effect not stated beside the values
# test.parameters: 30 µM
measurement.name: Percent Effect

> print(dat)
                                    compound  measurement.name  result
 1  COCC1CC2(CCN(C(=O)c3cccn3C)CC2)CN1C(C)C (stereo not given)    Percent Effect  -6.37%
 2  CN(Cc1nc2c(cnn2C)c(=O)[nH]1)Cc1ccc(F)cc1F    Percent Effect  -10.7%
 3              COCc1nc2cc(NCc3ccncc3)ccc2o1    Percent Effect  -55.9%
 4  O=C(NCCOc1ccc2c(c1)OCO2)C1CC(=O)N(CC2CC2)C1 (stereo not given)    Percent Effect   24.2%
 5  CCN(Cc1nc2c(cnn2C)c(=O)[nH]1)c1ccc(OC)c(OC)c1    Percent Effect  -61.1%
 6         CC(C)(C)NC(=O)CNC(=O)CCc1ccccc1Br    Percent Effect  -3.39%
 7  CCn1cc(S(=O)(=O)N(C)Cc2c(Br)cnn2CC)c(C)n1    Percent Effect   13.9%
 8    COCc1cccc(NS(=O)(=O)c2cc(C(=O)O)cs2)c1    Percent Effect  -27.7%
 9  CN1C(=O)C[C@@H]2[C@@H]1CCN2S(=O)(=O)Cc1ccccc1    Percent Effect  -4.62%
10  COc1c(C2CCCN2Cc2c(C)noc2C)c(C)nn1C (stereo not given)    Percent Effect   6.54%
11  O=S(=O)(C1CC1)N1CCOCC2(CCN(c3ccccn3)C2)C1 (stereo not given)    Percent Effect  -47.5%
12  Cn1ccnc1CN1CC[C@@H](NS(C)(=O)=O)[C@@H]1Cc1cccnc1    Percent Effect  -4.31%
13           Cc1nnc(NC(=O)NCc2cccnc2N(C)C)s1    Percent Effect  -16.1%
14  Cc1cccc(Nc2nccnc2C2CCCN2CC(=O)N(C)C)n1 (stereo not given)    Percent Effect  -29.9%
15  Cc1cccc(C(=O)NC(CN2CCCC2=O)c2ccccc2)n1 (stereo not given)    Percent Effect     14%
16      CN(Cc1cccc(F)c1)C1CCN(CCc2ccccn2)CC1    Percent Effect  -8.85%
17    CCc1ccc(O)c(C(=O)NC2CCN(C(=O)OC)CC2)c1    Percent Effect  -48.7%
18  Cc1nc(CN2CCCC2c2nc(C(C)C)no2)cs1 (stereo not given)    Percent Effect   12.9%
19    O=C(NCc1cccc2cccnc12)N1CCC(n2cncn2)CC1    Percent Effect   8.18%
20  CC(CNCc1ccc(Cl)c(Cl)c1)Oc1ccccn1 (stereo not given)    Percent Effect  -59.8%
